- Test system: DU-145 prostate
- assay.info: NCI tumour cell line growth inhibition, 48 h
reported.endpoint: TGI (µM)

compound	reported.endpoint	bound.sign	observed.measurement
COc1ccc(Cn2cc3c(c2-c2ccccc2)CCc2cnoc2-3)cc1	TGI	=	2.57
C[C@H]1C[C@@H](n2c(Nc3ccc(OC(F)(F)F)cc3)nc3cc(CCC(=O)O)ccc32)CC(C)(C)C1	TGI	=	27.2
COc1ccc2c(=O)c(-c3cc(OC)c(OC)cc3OC)coc2c1	TGI	>	100
CN(C)S(=O)(=O)c1cccc(C(=O)Nc2nc(-c3ccc(F)c(F)c3)cs2)c1	TGI	>	100
CCN1C(=O)N(CC)C2C1NN=c1s/c(=C3\C(=O)Nc4ccccc43)c(=O)n12 (stereo not given)	TGI	=	33.6

----------
TGI values for the compounds below.
- Tested on: T-47D breast
- assay.info: NCI tumour cell line growth inhibition, 48 h

structure.as.smiles	tested.system	TGI
COc1ccc(-c2cn(C)c3c2-n2cccc2C3=O)cc1O	T-47D breast	28.9 µM
CC(=O)c1cc2c(Br)cccc2oc1=O	T-47D breast	> 100 µM
C/C(Cc1ccc2c(c1)OCO2)=N\N=c1\sc2ccccc2n1C	T-47D breast	> 100 µM

----------
- System: HCC-2998 colon
- assay.info: NCI tumour cell line growth inhibition, 48 h
reported.endpoint: TGI (µM)

compound	tested.system	bound.sign	observed.measurement
COc1ccc(-n2nc(C)c3c(Nc4ccc(NC(=O)Nc5cccc(C(F)(F)F)c5)cc4)ncnc32)cc1	HCC-2998 colon	=	5.31
O=C(n1c2ccccc2c2n[nH]c(=S)nc21)C(F)(F)F	HCC-2998 colon	>	100
O=C(N/N=C\c1ccc(Cl)cc1)Nc1ccc2ccccc2c1	HCC-2998 colon	>	100
Nc1cc(OCC2CCCCC2)nc(N)n1	HCC-2998 colon	>	100
Cc1[nH]c(=O)nc(N/N=C/c2c3ccccc3c(Cl)c3ccccc23)c1C(=O)Nc1ccc(Cl)cc1	HCC-2998 colon	>	100
CN1CCN(C2=C(Cl)C(=O)c3ccccc3C2=O)CC1	HCC-2998 colon	=	4.51
CN1C/C(=C\c2cccs2)C2=NN(c3ccccc3)C(c3cccs3)C2C1 (stereo not given)	HCC-2998 colon	>	100
CCCC(=O)Oc1ccc(/C(=C(\C)c2ccc(Cl)cc2)c2ccc(OCCN(CC)CC)cc2)cc1	HCC-2998 colon	=	7.06
O=[N+]([O-])c1ccccc1/C=N\NC(=S)N/N=C/c1ccccc1[N+](=O)[O-]	HCC-2998 colon	>	100
COc1ccc(Cn2cc3c(c2-c2ccccc2)CCc2cnoc2-3)cc1	HCC-2998 colon	=	0.905

----------
- Tested on: IGROV1 ovarian
- assay.info: NCI tumour cell line growth inhibition, 48 h

compound	TGI
Cc1cn(S(=O)(=O)c2ccccc2)c2c(OCc3ccccc3)cc([N+](=O)[O-])cc12	> 100 µM
C=C1C(=O)OC2CC1C(OC(=O)/C=C/c1ccccc1)C/C(C)=C/CC/C(C)=C/CCC2(C)O (stereo unspecified)	3.07 µM
O=S1(=O)OCCOS(=O)(=O)C1(F)Cc1ccccc1	> 100 µM
CC(C#N)(NO)C(C)(C#N)NO (stereo unspecified)	> 100 µM
CC1=NNC(=O)C1C1(C(=O)O)CC(c2c[nH]c3ccccc23)=NC(=S)N1 (stereo unspecified)	> 100 µM
N=c1oc2cc(O)ccc2cc1C(=O)Nc1ccccn1	> 100 µM
O=C(COc1cc(=O)oc2ccccc12)c1ccccc1	76.7 µM
CCO/N=C\c1ccc2oc(-c3ccccc3)cc(=O)c2c1	10.7 µM
O=C1OC(c2ccc([N+](=O)[O-])cc2)=N/C1=C\c1ccc(Cl)cc1	> 100 µM
Cc1ccc([N+](=O)[O-])cc1S(=O)(=O)Nc1ccc(C2=NN(S(=O)(=O)c3cc([N+](=O)[O-])ccc3C)C(c3cccs3)C2)cc1 (stereo unspecified)	> 100 µM
CCC1(CC)C(=O)NC(=O)NC1=S	> 100 µM
CCN(CC)Cc1cc(N=Nc2c(O)ccc3c(N=Nc4ccc(O)c(CN(CC)CC)c4)c(O)ccc23)ccc1O	19 µM
CCN(Cc1cc(Cl)cc(C)c1O)Cc1c(O)ccc2ccccc12	31.1 µM
Cc1cccc(NC(=O)c2c(N)[n+]([O-])c3ccccc3[n+]2[O-])c1	21.5 µM
CCN1C(=O)N(CC)C2C1NN=c1s/c(=C3\C(=O)Nc4ccccc43)c(=O)n12 (stereo unspecified)	24.6 µM
CN(C)N1C(=O)C(=O)N(c2cccc3ccccc23)C1=O	> 10 µM
COC1CCCc2c(OC(C)=O)ccc(OC(C)=O)c21 (stereo unspecified)	> 100 µM
O=C1/C(=C/c2cccc([N+](=O)[O-])c2)N=C(c2ccccc2)N1c1nc2ccc(Sc3ccccc3)cc2[nH]1	> 100 µM
C/C(Cc1ccc2c(c1)OCO2)=N\N=c1\sc2ccccc2n1C	> 100 µM
Cc1[nH]n(-c2nc(-c3ccccc3)cc(=O)[nH]2)c(=O)c1CCO	> 100 µM
COc1ccc2nc3cc(Cl)ccc3c(Sc3ccc(N)cc3)c2c1	32 µM

----------
- Tested on: HCT-15 colon
- assay.info: NCI tumour cell line growth inhibition, 48 h
Catalogue of TGI values

compound	TGI
O=C(NCCCN1CCN(CCCNC(=O)c2cccc3ccccc23)CC1)c1cccc2ccccc12	> 100 µM
CN(C)S(=O)(=O)c1cccc(C(=O)Nc2nc(-c3ccc(F)c(F)c3)cs2)c1	> 100 µM
O=c1cc(NNc2ccccc2)[nH]c(=O)[nH]1	30 µM
O=C(Cn1c2ccc(Br)cc2c2nc3ccccc3nc21)NCc1ccccc1	> 100 µM
C=CCCC(O)c1cc(C)c(O)c(C)c1 (stereo unspecified)	> 100 µM
O=C(CCN1CCCC1)Nc1ccc2c(Nc3ccc(F)cc3)c3ccccc3nc2c1	2.53 µM
COc1ccc([N+](=O)[O-])c2c(NCCCN(C)C)c(C)c(C)nc12	> 100 µM
CCCCC[C@@H]1CCCC2NC(CCCCCO[Si](c3ccccc3)(c3ccccc3)C(C)(C)C)CCC21 (stereo partly specified)	25.7 µM
CNc1c2ccccc2nc2occ(Cl)c12	> 100 µM
N#CC1=C(N)NC(=O)C(C#N)C12Nc1ccccc1S2 (stereo unspecified)	> 100 µM
O=C1/C(=C/c2ccc(F)cc2)COc2ccc(O)c(O)c21	5.85 µM

----------
- Test system: OVCAR-3 ovarian
- assay.info: NCI tumour cell line growth inhibition, 48 h
reported.endpoint: GI50

structure.as.smiles	reported.endpoint	observed.measurement
COc1ccc(-c2nc(NC(=O)CS(=O)(=O)c3ccc(F)cc3)sc2C)cc1	GI50	15.7 µM
O=C(c1ccc(Cl)cc1Cl)N1CCN(C(=O)c2ccc(Cl)cc2Cl)C1=S	GI50	19.7 µM
CC(C)(C)OC(=O)N(CCCCN(CCCn1c2c(c3ccccc3c1=O)C(=O)c1ccccc1-2)C(=O)OC(C)(C)C)CCCn1c2c(c3ccccc3c1=O)C(=O)c1ccccc1-2	GI50	69.6 µM
CN(C)S(=O)(=O)c1cccc(C(=O)Nc2nc(-c3ccc(F)c(F)c3)cs2)c1	GI50	18.4 µM

----------
- Test system: OVCAR-8 ovarian
- assay.info: NCI tumour cell line growth inhibition, 48 h

molecule	GI50
O=C(CCN1CCCC1)Nc1ccc2c(Nc3ccc(F)cc3)c3ccccc3nc2c1	1.56 µM
COc1ccc(-n2nc(C)c3c(Nc4ccc(NC(=O)Nc5cccc(C(F)(F)F)c5)cc4)ncnc32)cc1	1.93 µM
COc1ccc(-c2cn(C)c3c2-n2cccc2C3=O)cc1O	19.7 µM
C[C@H]1C[C@@H](n2c(Nc3ccc(OC(F)(F)F)cc3)nc3cc(CCC(=O)O)ccc32)CC(C)(C)C1	13.2 µM
CNc1c2ccccc2nc2occ(Cl)c12	37.7 µM
COc1cc(C[C@H]2COC(=O)[C@]2(O)Cc2ccc(OCc3ccccc3)c(OC)c2)ccc1OCc1ccccc1	12.3 µM
N#CC1=C(N)NC(=O)C(C#N)C12Nc1ccccc1S2 (stereo unspecified)	91.3 µM
O=C(c1ccc(Cl)cc1Cl)N1CCN(C(=O)c2ccc(Cl)cc2Cl)C1=S	22.1 µM
CN(c1cccc(C(=O)O)c1)c1cc(O/N=[N+](\[O-])N(C)C)c([N+](=O)[O-])cc1[N+](=O)[O-]	> 100 µM
CN(C)Cc1ccc(NC(=O)c2cncc(C#Cc3cnc(N)c4ncccc34)c2)cc1C(F)(F)F	1.82 µM
COc1ccc(Cn2cc3c(c2-c2ccccc2)CCc2cnoc2-3)cc1	0.416 µM

----------
Entries and their measured TGI follow.
- Test system: TK-10 renal
- assay.info: NCI tumour cell line growth inhibition, 48 h
reported.endpoint: TGI

molecule	observed.measurement
O=[N+]([O-])c1ccc(Sc2cccc[n+]2[O-])c2nonc12	20.8 µM
O=C1CCCC2=C1CC1=C(CCCC1=O)N2c1ccc(Cl)cc1	> 100 µM
Cc1cc(C)c2c(=N)c3ccccc3n(CCCCCCCCn3c4ccccc4c(=N)c4c(C)cc(C)nc43)c2n1	4.72 µM
COc1ccc2c(c1)/C(=C\c1c(Cl)nc3n1CCS3)C(=O)N2	28.1 µM
COc1cc(/C=C/C(=O)c2c(C)n([O-])c3ccccc3[n+]2=O)cc(OC)c1OC	24 µM
O=c1c(NCc2ccccc2)c(C2(c3ccccc3F)SCCCS2)c1=O	> 100 µM
CCC1(CC)C(=O)NC(=O)NC1=S	> 100 µM
CCOC(CBr)OC1C(=O)OCC1(C)C (centres undefined)	> 100 µM
O=S(=O)(F)Cc1ccccc1	> 100 µM
COc1cc(C[C@@]2(C)[C@@H]3CCC[C@H](CO)[C@@]3(C)CC[C@@H]2C)c(Cl)c(OC)c1	35.1 µM
CC(C)(C)OC(=O)N(CCCCN(CCCn1c2c(c3ccccc3c1=O)C(=O)c1ccccc1-2)C(=O)OC(C)(C)C)CCCn1c2c(c3ccccc3c1=O)C(=O)c1ccccc1-2	> 100 µM
Cc1ccc(C(=O)Nc2ccc(S(=O)(=O)O)c3cc(S(=O)(=O)O)cc(S(=O)(=O)O)c23)cc1NC(=O)c1cccc(NC(=O)Nc2cccc(C(=O)Nc3cc(C(=O)Nc4ccc(S(=O)(=O)O)c5cc(S(=O)(=O)O)cc(S(=O)(=O)O)c45)ccc3C)c2)c1	> 89.7 µM
COC(=O)C1(Cc2ccc3c(c2)CCC3)Cc2ccc3c(c2C1=O)CCC3 (centres undefined)	> 90.1 µM
O=c1cc(NNc2ccccc2)[nH]c(=O)[nH]1	> 100 µM
CC(NCCN(C)C)C1CCC2C3CCc4cc(O)ccc4C3CCC12C (centres undefined)	6.63 µM
CCC1c2[nH]c3ccccc3c2C[C@H]2C(=O)NC(C)C(=O)N12 (some centres undefined)	> 100 µM
COC(=O)NC1(NC(=O)OC)NC(=O)c2ccccc2N1	> 100 µM
CC(C)CC1c2[nH]c3ccccc3c2C[C@H]2C(=O)NC(Cc3c[nH]c4ccccc34)C(=O)N12 (some centres undefined)	24.5 µM
N.N.N.N.N#N.N#N.[Cl-].[Os+6]	> 100 µM
